- Test system: vertebral artery
- EXPERIMENTAL_DETAILS: Effect to increase the blood flow of the vertebral artery in anesthetized beagle dogs (Pharmacological Test Example 1)
- Assay type: in vivo, beagle dog
- MEASUREMENT_PARAMETERS: 0.01 mg/kg iv
MEASURED_ENDPOINT: Change in blood pressure (%)
Give a bare numeral; the unit % is implied.

MOLECULE: CCCCOC(=O)C1=C(COC(N)=O)NC(C)=C(C(=O)OC)C1c1cccc(Cl)c1Cl (centres unmarked)
RECORDED_MEASUREMENT: -14
--
MOLECULE: COC(=O)C1=C(C)NC(COC(N)=O)=C(C(=O)OC)C1c1cccc(Cl)c1Cl (centres unmarked)
RECORDED_MEASUREMENT: -13
--
MOLECULE: CCOC(=O)C1=C(COC(N)=O)NC(C)=C(C(=O)OC)C1c1cccc(Cl)c1Cl (centres unmarked)
RECORDED_MEASUREMENT: -14
--
MOLECULE: COC(=O)C1=C(C)NC(COC(N)=O)=C(C(=O)OC(C)C)C1c1cccc(Cl)c1Cl (centres unmarked)
RECORDED_MEASUREMENT: -14

Proceed to the following item.
Measured Change in blood pressure, CCCOC(=O)C1=C(COC(N)=O)NC(C)=C(C(=O)OC)C1c1cccc(Cl)c1Cl (centres unmarked) : -15

Taken from patent US5444077A.
